# protocol_text: Electrochemical measurements (cyclic voltammetry)
# Format: physicochemical
# assay_conditions: cyclic voltammetry, 0.1 M nBu4NPF6, glassy carbon, vs Cp2Fe^+/0
Each item that follows carries a reported Couple I (first reduction couple).
Give the quantity in V, number only.

Solved cases below.
* Clc1ccc(-c2c3nc(c(-c4ccc(Cl)cc4)c4ccc([n-]4)c(-c4ccc(Cl)cc4)c4nc(c(-c5ccc(Cl)cc5)c5ccc2[n-]5)C=C4)C=C3)cc1.[Au+3].[Cl-] [Complex 1e] | −0.96
* Brc1ccc(-c2c3nc(c(-c4ccc(Br)cc4)c4ccc([n-]4)c(-c4ccc(Br)cc4)c4nc(c(-c5ccc(Br)cc5)c5ccc2[n-]5)C=C4)C=C3)cc1.[Au+3].[Cl-] [Complex 1d] | −0.97
* COc1ccc(-c2c3nc(c(-c4ccc(OC)cc4)c4ccc([n-]4)c(-c4ccc(OC)cc4)c4nc(c(-c5ccc(OC)cc5)c5ccc2[n-]5)C=C4)C=C3)cc1.[Au+3].[Cl-] [Complex 1c] | −1.02

Reported Couple I (first reduction couple) ( C1=Cc2nc1c(-c1ccccc1)c1ccc([n-]1)c(-c1ccccc1)c1nc(c(-c3ccccc3)c3ccc([n-]3)c2-c2ccccc2)C=C1.[Au+3].[Cl-] [Complex 1a] ) = −1.00
